For each of the binders below, state its kon.
Molecular target: T1, recombinant hIL-6R protein, monomeric form (human, UniProt P08887 20-358)
T1 construct: also called monomeric hIL-6R; Human IL6R
T1 sequence: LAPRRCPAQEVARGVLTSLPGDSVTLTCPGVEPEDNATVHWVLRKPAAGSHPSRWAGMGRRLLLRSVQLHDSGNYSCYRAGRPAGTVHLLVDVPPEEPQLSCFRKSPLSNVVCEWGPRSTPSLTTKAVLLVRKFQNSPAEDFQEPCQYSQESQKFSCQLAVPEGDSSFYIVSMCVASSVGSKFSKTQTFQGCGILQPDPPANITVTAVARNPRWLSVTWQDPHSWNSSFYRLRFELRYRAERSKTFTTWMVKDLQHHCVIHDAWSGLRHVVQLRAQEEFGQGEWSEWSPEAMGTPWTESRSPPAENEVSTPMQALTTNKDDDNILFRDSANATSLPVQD
Test: SPR (BIAcore), antibody captured on goat anti-human Fc, monomeric hIL-6R 1.56-12.5 nM
Include the unit right after the number.

Q: Tell me the measured kon of VQ8A9-6 hIgG4 (antibody, V domains shown, Human IgG4 constant region) VH: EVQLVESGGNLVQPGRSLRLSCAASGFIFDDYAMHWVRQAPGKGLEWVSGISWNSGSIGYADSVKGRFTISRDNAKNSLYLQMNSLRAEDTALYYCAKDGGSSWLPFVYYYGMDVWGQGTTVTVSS VL: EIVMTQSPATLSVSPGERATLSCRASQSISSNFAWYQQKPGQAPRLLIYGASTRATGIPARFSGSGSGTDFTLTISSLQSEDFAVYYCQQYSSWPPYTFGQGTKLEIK , please.
Result: 1.17e+06 M⁻¹ s⁻¹

Q: Follow-up entry: VQ8A9-6 hIgG1 (antibody, V domains shown, Human IgG1 constant region) VH: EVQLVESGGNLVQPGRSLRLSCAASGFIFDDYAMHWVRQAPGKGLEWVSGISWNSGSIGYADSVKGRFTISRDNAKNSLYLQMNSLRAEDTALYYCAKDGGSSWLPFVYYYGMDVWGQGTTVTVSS VL: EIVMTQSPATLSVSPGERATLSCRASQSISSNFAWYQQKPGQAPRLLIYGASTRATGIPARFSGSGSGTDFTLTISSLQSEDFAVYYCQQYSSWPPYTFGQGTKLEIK
Result: 1.09e+06 M⁻¹ s⁻¹

Q: Follow-up entry: VV6A9-5 hIgG4 (antibody, V domains shown, Human IgG4 constant region) VH: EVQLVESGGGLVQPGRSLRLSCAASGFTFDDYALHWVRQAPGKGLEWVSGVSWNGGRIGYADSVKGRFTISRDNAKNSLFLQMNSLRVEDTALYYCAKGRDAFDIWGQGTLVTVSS VL: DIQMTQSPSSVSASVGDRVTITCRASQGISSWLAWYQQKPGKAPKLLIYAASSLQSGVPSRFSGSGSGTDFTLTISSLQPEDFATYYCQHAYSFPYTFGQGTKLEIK
Result: 567000 M⁻¹ s⁻¹

Q: Follow-up entry: VQ8F11-21 modhIgG4 (antibody, V domains shown, Modified human IgG4 constant region; also called VQ8F11-21 modified human IgG4) VH: EVQLVESGGGLVQPGRSLRLSCAASRFTFDDYAMHWVRQAPGKGLEWVSGISWNSGRIGYADSVKGRFTISRDNAENSLFLQMNGLRAEDTALYYCAKGRDSFDIWGQGTMVTVSS VL: DIQMTQSPSSVSASVGDRVTITCRASQGISSWLAWYQQKPGKAPKLLIYGASSLESGVPSRFSGSGSGTDFTLTISSLQPEDFASYYCQQANSFPYTFGQGTKLEIK
Result: 881000 M⁻¹ s⁻¹
